Below: a set of entries, each annotated with reported Transport (%) (2h).
tested on: bovine brain endothelial cells; experiment: Transport across the BBB, in vitro bovine cell assay (co-culture, transwell); conditions: bovine cell model, 2 h, 37 °C, Ringer-HEPES pH 7.4; 200 µM (Example 21: 1.75 µM)
Positions of bridges follow the written chain, without caps; N, C: chain ends. Residues, ends and D or L forms follow the SMILES beside them.
quantity.kind: Transport (%) (2h)

| molecule | system | quantity.kind | recorded.result |
| --- | --- | --- | --- |
| CC(C)C[C@@H]1NC(=O)[C@H](C)NC(=O)[C@H]([C@@H](C)O)NC(=O)[C@H](CCC(=O)O)NC(=O)[C@@H]2CCCN2C(=O)[C@H](C)NC(=O)[C@H](CCCCN)NC(=O)[C@@H]2CSSC[C@@H](C(=O)N[C@@H](Cc3c[nH]cn3)C(N)=O)NC(=O)[C@H](C)NC(=O)[C@H](C)NC(=O)[C@H](C)NC(=O)[C@H](CSSC[C@H](N)C(=O)N[C@@H](CC(N)=O)C(=O)N2)NC1=O [Example 1] (H-CNCKAPETALCAAACH-NH2; disulfide 1-11, 3-15) | bovine brain endothelial cells | Transport (%) (2h) | 3.2±0.3% |
| CC(C)C[C@@H]1NC(=O)[C@H](C)NC(=O)[C@H]([C@@H](C)O)NC(=O)[C@H](CCC(=O)O)NC(=O)[C@@H]2CCCN2C(=O)[C@H](C)NC(=O)[C@H](CCCCN)NC(=O)[C@@H]2CSSC[C@@H](C(=O)N[C@@H](CCC(N)=O)C(=O)N[C@@H](CCC(N)=O)C(=O)N[C@@H](Cc3cnc[nH]3)C(N)=O)NC(=O)[C@H](CCCNC(=N)N)NC(=O)[C@H](CCCNC(=N)N)NC(=O)[C@H](C)NC(=O)[C@H](CSSC[C@H](N)C(=O)N[C@@H](CC(N)=O)C(=O)N2)NC1=O [Comparative example 1, reference compound] | bovine brain endothelial cells | Transport (%) (2h) | 0.9±0.2% |

----------
assay: Stability of the shuttles in human serum; format: in vitro ADME; settings: HBSS, 37 °C, 90% human serum

| substance | half-life at 400 µM |
| --- | --- |
| H-KAPETAL-NH2 [Example 5, H-Lys-Ala-Pro-Glu-Thr-Ala-Leu-NH2] | ≤ 8 min |

----------
tested on: bovine brain endothelial cells; assay: Transport across the BBB, in vitro bovine cell assay (co-culture, transwell); conditions: bovine cell model, 2 h, 37 °C, Ringer-HEPES pH 7.4; 200 µM (Example 21: 1.75 µM)
Positions of bridges follow the written chain, without caps; N, C: chain ends. *: point of attachment. Biotin = O=C1N[C@H]2[C@H](CS[C@H]2CCCCC(=O)*)N1
# Transport (%) (2h) >= 2% gives TRUE, anything below gives FALSE

| substance | group |
| --- | --- |
| Biotin-CNCKAPETALCAAACH-NH2 (cysteine pairing not given here) [Example 15] | FALSE |
| 5(6)-Carboxyfluorescein-Cys-Asn-Cys-Lys-Ala-Pro-Glu-Thr-Ala-Leu-Cys-Ala-Ala-Ala-Cys-His-NH2 ({5(6)‑carboxyfluorescein}-CNCKAPETALCAAACH-NH2; disulfide 1-11, 3-15) [Example 10] | TRUE |
| H-Cys-Lys-Ala-Pro-Glu-Thr-Ala-Leu-Cys-NH2 (H-CKAPETALC-NH2; cysteine pairing not given here) [Example 2] | TRUE |
| H-KAPETAL-NH2 [Example 5, H-Lys-Ala-Pro-Glu-Thr-Ala-Leu-NH2] | TRUE |
| Lysozyme-V3-Cys-Asn-Cys-Lys-Ala-Pro-Glu-Thr-Ala-Leu-Cys-Ala-Ala-Ala-Cys-His-NH2 [Example 21] | FALSE |
